# Tested on: CD2F1 mice, L1210 leukemia ip, survival T/C
# procedure_summary: NCI In Vivo Anticancer Drug Screen. Data for tumor model L1210 Leukemia (intraperitoneal) in CD2F1 (CDF1) mice
# test_settings: endpoint: mean survival time; dose: 100.0 mg/kg/injection; schedule: Q04DX003 (ip); vehicle: saline with Tween-80; higher = longer survival
Toxic doses and inconclusive results are not listed.
Readings of T/C for the listed molecules

{"columns": ["molecule", "T/C"],
 "data": [
  ["CCCCCCCCCCCCNCCC#N", "93 % of control"],
  ["O=C(CN1C(=O)CCC1=O)NCCc1cccc(OCc2ccccc2)c1", "97 % of control"],
  ["CCOC(=O)CN/N=C(\\N)CSS(=O)(=O)O", "97 % of control"],
  ["CC1=CC=CC(C)(C(Cl)Cl)C1=O (stereo not given)", "96 % of control"],
  ["Cc1ccc(N)c(Br)c1", "92 % of control"],
  ["COc1ccc(C(=O)CC(C(=O)O)c2ccc(OC)c(OC)c2)cc1OC (stereo not given)", "98 % of control"],
  ["COc1cc(-c2ccc(-[n+]3nc(Cc4ccc5c(c4)OCO5)nn3-c3ccccc3)c(OC)c2)ccc1-[n+]1nc(Cc2ccc3c(c2)OCO3)nn1-c1ccccc1", "98 % of control"],
  ["O=C(Nc1ccc(Br)cc1)c1ccccc1", "102 % of control"],
  ["C1=CSC(=C2SC=CS2)S1", "95 % of control"],
  ["CCOC(=O)C1OC12c1cccc3cccc(c13)C21OC1C(=O)OCC (stereo not given)", "97 % of control"],
  ["CCCCC(C)(C)C", "99 % of control"],
  ["O=CC1C2C=CCC12 (stereo not given)", "95 % of control"],
  ["O=[N+]([O-])c1ccc(-c2ccccc2)cc1", "100 % of control"],
  ["Cc1ccc(C(O)c2c(C)cc(C)cc2C)c(C)c1 (stereo not given)", "94 % of control"],
  ["ClCC1C(CCl)C2(Cl)C(Cl)=C(Cl)C1(Cl)C2(Cl)Cl (stereo not given)", "93 % of control"]
]}
